Item-by-item account of RFP signal change
- test_description: GFP drop in mixed WT/humanized-ribosome E. coli culture – GFP/RFP fluorescence, OD600, single point, bacterial rRNA inhibitor project, primary screen (AID 720706)
- assay_setup: E. coli WT GFP vs humanized-ribosome RFP mutants, 24 h; measured here: RFP humanized mutant strains, DMSO median 0, no signal -100, concentration not given here
Hit rate of the full screen: of about 350,000 compounds, about 5,500 (1.6%) were called active. What follows is part of a selection rich in actives, with near analogues and random picks from the rest.
measure_name: RFP signal change (%)

In [3]: df
Out[3]:
                                    molecule  value_observed
 0  CNC[C@@H]1Oc2c(NC(=O)Nc3ccc(F)cc3)cccc2C(=O)N([C@@H](C)CO)C[C@@H]1C           -0.32
 1  CCn1c(O)c(N=NC(=O)c2cccc(S(=O)(=O)N3CCCCC3)c2)c2ccccc21           -4.79
 2  C[C@@H]1CN([C@H](C)CO)C(=O)c2cc(-c3ccc(F)cc3)cnc2O[C@@H]1CN(C)Cc1ccc(C(=O)O)cc1           -8.48
 3           COC(=O)c1c(C(=O)OC)c2n(c1C)CCS2           -5.79
 4  CC(=O)Nc1ccc2c(c1)CC(=O)N(C)C[C@H](C)[C@H](CN(C)S(C)(=O)=O)O2           0.168
 5  COc1ccc(CNC(=O)COC(=O)c2ccc(C)c(S(=O)(=O)N3CCOCC3)c2)cc1OC            4.29
 6  C[C@H]1CN(C)C(=O)c2cccc(N(C)C)c2O[C@@H]1CN(C)C            -1.5
 7  COc1cccc(C(=O)N2C[C@@H]3[C@H](c4ccccc42)[C@H](CO)N3Cc2ccccc2F)c1            1.94
 8  CC1(C)CC(=O)C=C(c2ccc(Cl)c(C(F)(F)F)c2)C1           -10.1
 9  COc1cccc(CN2CC3(CN(Cc4ccccn4)C3)c3c([nH]c4cc(OC)ccc34)[C@@H]2CO)c1            5.99
10  Cc1ccc(C(=O)OCC(=O)NCc2cc(C)c(O)c(C)c2)cc1S(=O)(=O)N1CCCCC1           -2.51
11  CC(C)NC(=O)Nc1cccc2c1O[C@@H](CN(C)C(=O)NC(C)C)[C@@H](C)CN(C)C2=O          -0.789
12  CCC(C)N(C)C1CCN(C(=S)Nc2ccc(OC)cc2)CC1 (stereo not given)           -3.62
13  CCOC(=O)c1ccn(S(=O)(=O)c2ccc(C)cc2)c1-c1ccccc1            -5.7
14                 COC(=O)c1c(C)cc(O)c(C)c1O            0.38
15  COc1ccccc1NC(=O)N[C@H]1CC[C@@H](CCn2cc(C3(O)CCCC3)nn2)O[C@@H]1CO            -2.3
16  CCC(O)C1CCN(Cc2cn(-c3ccc(OC)cc3)nc2-c2cccc(F)c2)CC1 (stereo not given)            3.52
17  COc1ccc(-n2cc(CNC3CCOCC3)c(-c3cccc(F)c3)n2)cc1           -1.67
18  O=C(C[C@@H]1CC[C@H](NC(=O)C2CCC2)[C@@H](CO)O1)NC1CCCCC1           -1.22
19       CCc1c(N=O)c(-c2ccccc2)n(O)[n+]1[O-]           -2.88
20        COc1ccc2oc(C(=O)NCc3ccco3)c(C)c2c1             2.2
21  Cc1c(C(=O)NCC(c2ccco2)N2CCCC2)oc2ccc(Cl)cc12 (stereo not given)            6.54
22  COCCNc1cc(-c2ccccc2)nc2cc(-c3cccc(F)c3)nn12           -4.74
23  COCC(=O)Nc1ccc2c(c1)C(=O)N(C)C[C@H](OC)[C@@H](C)CN(CCc1ccccc1)[C@@H](C)CO2            -1.3
24  CCCNC(=O)N(C)C[C@@H]1Oc2ncc(C#CCc3ccccc3)cc2C(=O)N([C@@H](C)CO)C[C@H]1C          -0.346
25  C[C@H]1CN([C@@H](C)CO)C(=O)Cc2cc(NC(=O)NC3CCCCC3)ccc2O[C@@H]1CN(C)Cc1ccc(Oc2ccccc2)cc1          -0.931
26  COc1ccc(Cl)cc1NC(=O)C(C)N1CCc2ccccc21 (stereo not given)           -3.11
27   COc1ccc2c(c1)c1ncn(Cc3ccccn3)c(=O)c1n2C           -3.41
28       COc1cc(F)c(C2=CC(=O)CC(C)(C)C2)cc1F            2.19
29             COC(=O)c1c(-c2ccc(C)cc2)csc1N            43.8
30    COc1ccccc1C1CCN(C(=S)Nc2ccc(Br)cc2)CC1           -10.2
31  CO[C@@H]1CN(C)C(=O)c2cc(NS(=O)(=O)c3ccc(C)cc3)ccc2OC[C@H](C)N(Cc2nccs2)C[C@@H]1C             7.3
32  O=C(NCCS(=O)(=O)N1CCN(c2ccccc2)CC1)c1ccco1           -1.71
33  O=C(C1CCCC1)N1CC(=O)N2[C@H](CO)[C@H](c3ccc(Br)cc3)[C@@H]2C1           0.246
34    COCCCNc1ccn2nc(-c3ccc(CC(C)C)cc3)cc2n1            0.31
35  CO[C@@H]1CN(C)C(=O)c2ccc(NC(=O)NC(C)C)cc2OC[C@@H](C)N(C)C[C@H]1C            2.18
36  COc1ccc(N2CCN(C(=O)CCSCc3ccccc3F)CC2)cc1           -1.41
37                   COc1ccc(NCCc2ccccn2)cc1            9.18
38  CCC(=O)N1[C@@H](CO)[C@@H](c2ccccc2)C12CN(C(=O)Cc1ccccc1)C2          -0.755
39  COc1ccc(-c2cc3nc(NCCOc4ccccc4)ccn3n2)cc1            16.5

----------
Item-by-item account of RFP signal change
- test_description: GFP drop in mixed WT/humanized-ribosome E. coli culture – GFP/RFP fluorescence, OD600, single point, bacterial rRNA inhibitor project, primary screen (AID 720706)
- assay_setup: E. coli WT GFP vs humanized-ribosome RFP mutants, 24 h; measured here: RFP humanized mutant strains, DMSO median 0, no signal -100, concentration not given here
The whole screen tested about 350,000 compounds, of which about 5,500 (1.6%) were called active. The list comes from a sample in which actives are over-represented; it also holds close analogues and randomly drawn compounds.
measure_name: RFP signal change (%)

In [3]: df
Out[3]:
                                    molecule  value_unit  value_observed
 0  Cc1ccc(S(=O)(=O)NC(C)C(=O)NCc2ccc(Cl)cc2)cc1 (stereo unspecified)           %           -4.03
 1  COc1ccccc1N1CCN(Cc2cc(OC)c3c(c2)OCO3)CC1           %           -3.78
 2  COC(=O)c1cc(C)sc1NC(=O)CC1Nc2ccccc2NC1=O (stereo unspecified)           %            12.5
 3  Cc1cc(C)cc(NC(=O)c2cccc(NC(=O)C3C4CC5OC(=O)C3C5C4)c2)c1 (stereo unspecified)           %            6.04
 4  CCN1CCN(c2nc(Nc3cccc(F)c3)nc(N)c2[N+](=O)[O-])CC1           %           -3.28
 5  O=C(C[n+]1cc(-c2ccc(Cl)c(Cl)c2)n2c1CCC2)c1cccs1           %           -14.4
 6  C=CCOC(=O)N1CCC2CC1c1cc(-c3ccc(OC)cc3)ccc12 (stereo unspecified)           %           -4.99
 7  COC(=O)c1cccc(NC(=O)c2cccc(N3C(=O)CCC3=O)c2)c1           %           0.607
 8  Cc1ccc(NC(=O)COC(=O)C2C3CC4OC(=O)C2C4C3)cc1Cl (stereo unspecified)           %           -5.78
 9  COc1ccc(-c2ccc3c(c2)C2CC3CCN2CCC#N)cc1 (stereo unspecified)           %           -3.22
10  Cc1ccc(CNC(=O)CC2Sc3ccccc3NC2=O)cc1 (stereo unspecified)           %            3.46
11  COc1ccc(CN2CCN(Cc3ccc(OC)c(OC)c3OC)CC2)cc1           %          -0.244
12  COc1cccc(Nc2nc(N)c([N+](=O)[O-])c(NCc3ccco3)n2)c1           %           -12.3
13  Clc1ccc(C[n+]2cc(-c3ccc(Cl)cc3)n3c2CCC3)cc1           %           -12.3
14  O=S(=O)(NC[C@H]1[C@H](c2ccccc2)[C@H](CO)N1CC1CC1)c1ccccc1           %           -1.76
15  COc1ccc2c3c(n(C)c2c1)[C@H](CO)N(CC1CCCCC1)CC31CCN(Cc2nccs2)CC1           %            21.2
16  O=C(COC(=O)Cc1ccc(Br)cc1)Nc1c(F)c(F)c(F)c(F)c1F           %            3.44
17  C[C@H]1CN([C@@H](C)CO)C(=O)c2cc(NS(C)(=O)=O)ccc2O[C@@H]1CN(C)S(=O)(=O)c1ccc(Cl)cc1           %           0.846
18  Cc1ccc(-c2c[n+](CC(=O)Nc3ccccc3)c3n2CCC3)cc1           %            8.16
19  COc1ccccc1-c1ccc([C@@H]2C[C@H]3[C@H](CON3C)CN2S(=O)(=O)c2cc(Cl)cc(Cl)c2)cc1           %           -4.58
20  COc1ccccc1-c1cnc2c(c1)C(=O)N([C@@H](C)CO)C[C@H](C)[C@@H](CN(C)C(C)=O)O2           %           -1.79
